# ASSAY_TEXT: yeast display, Sf9 membrane polyspecificity reagent, FACS + sequencing; frameworks hold sequencing errors
ASSAY_METRIC: polyreactivity (PSR sort gate)

Examples from the recorded data:
sequence_data=QVQLVESGGGLVQAGGSLRLSCAASGRIFYRYAMGWYRQAPGKERELVAAITGSVGSTYYADSVKGRFTISRDNAKNTVYLQMNSLKPEDTAVYYCAREYHGDSRRYDYWGQGTQVTVSS observed_result="high polyreactivity"
sequence_data=QVKLVESGGGLVQAGGILRLSCAASGSIIVGNPMGWYRQAPGKERELVAAISRSGGSTYYADSVKGRFTISRDIAKNTVYLQMNSLKPEDTEVYYCASVRKQASGVDYWGQGTQVPVSS observed_result="high polyreactivity"
sequence_data=QLQLGESGGGLVQAGGSLRLSCAGSGSIFNYYAMGWYRQATGKERELVAAITSGGSTYYADSVKGRFTISRDNAKNTVYLQMNSLKPEDTAVYYCNKAFPYIYEYWGQGTQVTVSS observed_result="low polyreactivity"
sequence_data=QVQLVESGGGLVQAGGSLRLSCAASGFNYRYYAMGWYRQAPGKERELVAAIDYSGGSTNYADSVKGRFTISRDNAKNTVYLQMNSLNPEDTAVYYCNAEYTWHRGYDYWGQGTQVTVSS observed_result="low polyreactivity"

Can you give me polyreactivity (PSR sort gate) for all of these, one by one?
1. QVQLVESGGGLVQAGGSLRLSCAASGITFKYYAMGWYRQAPGKERELVAAITRGGSTYYADSVKGRFTISRDNAKNTVYLQMNSLKPEDTAVYYCNKARTYELYWGQGTQVTVSS
2. QVQLVESGGGLVQAGGSLRLSCAASGSTFYYYAMGWYRQAPGKERELVAAISSGGSTYADSVKGRFTISRDNAKNTVYLQMNSLKPEDTAVYWGQGTQVTVSS
3. QVQLVESGGCLVQAGGSLRLSCASSGIIIRKYAMGWYRQQPGKERELVAAITTRGSRTYYADSVKGRFTISRDNAKNTVYLQMNSLKPEDTAVYYCASDRYTVRMDYWGQGTQVTVSS
4. QVQLLESGGGLVQAGGSLRLSCAASGSIFVGYAMGWYRPAPGKERELVASITTPGGSTHYADSVKGRFTISRDNAKNTVYLQMNSLKPEDTAVYYCAADSLSNGVLQYLPGYDYWGQGTQVTVSS
5. QVQLVESGGGLVQAGGSLRLSCAASGSTFGKYAMGWYRQAPGKERELVAAITRRTGSTYYADSVKGRFTISRDNAKNTVYLQMNSLKPVDTAVYYCAARLPQYRYDYWGQGTQVTVSS
6. QVQLVESGGGLVQAGGSLRLSCAASGSIFGSNAMGWYRQAPGKEREFVAAIDWGGTITYYADSVKGRFTISRDNAKNTVYLQMNSLKPEDTAVYYCAADPTYPYGYWGQGTQVTVSS
7. QVQLVESGGGLVQAGGSLRLSCAASGSIYSNAMGWYRQAPGKERELVAAISWRDGRTYYADSVKGRFTISRDNAKNTVYLQMNSLKPEDTAVYYCNADSRPLSTYYYWGQGTQVTVSS

Result string:
1: high polyreactivity; 2: low polyreactivity; 3: high polyreactivity; 4: low polyreactivity; 5: high polyreactivity; 6: low polyreactivity; 7: low polyreactivity

The origin of these recorded values is the nanobody polyreactivity screen of Harvey et al. (2022).
